method: In vivo formation of NAFB1 and NAHFB1 in rat kidney and liver (HPLC-ESI-MS/MS)
Parameters: unit not given here
test.settings: Liver; treatment FB1 0,5 mg/kg BW ip, 5 days
readout: N-acyl-derivative in tissue sample, analysis a

molecule: CCCCCCCCCCCCCCCCCCCCCC(=O)NC(C)C(O)CC(O)CCCCC(O)CC(C)CC(OC(=O)CC(CC(=O)O)C(=O)O)C(OC(=O)CC(CC(=O)O)C(=O)O)C(C)CCCC (stereo not drawn)
measurement: 2,9
//
molecule: CCCCCCCCCCCCCCCCCCCCCCCC(=O)N[C@@H](C)[C@@H](O)C[C@H](O)CCCC[C@@H](O)C[C@H](C)C[C@H](O)[C@H](O)[C@H](C)CCCC
measurement: 0,0
//
molecule: CCCCCCCCCCCCCCCC(=O)NC(C)C(O)CC(O)CCCCC(O)CC(C)CC(OC(=O)CC(CC(=O)O)C(=O)O)C(OC(=O)CC(CC(=O)O)C(=O)O)C(C)CCCC (stereo not drawn)
measurement: 6,8
//
molecule: CCCCCCCCCCCCCCCCCCCCCCCC(=O)NC(C)C(O)CC(O)CCCCC(O)CC(C)CC(OC(=O)CC(CC(=O)O)C(=O)O)C(OC(=O)CC(CC(=O)O)C(=O)O)C(C)CCCC (stereo not drawn)
measurement: 11,7
//
molecule: CCCCCCCCC=CCCCCCCCCCCCCCC(=O)NC(C)C(O)CC(O)CCCCC(O)CC(C)CC(OC(=O)CC(CC(=O)O)C(=O)O)C(OC(=O)CC(CC(=O)O)C(=O)O)C(C)CCCC (stereo not drawn)
measurement: 9,2
//
molecule: CCCCCCCCCCCCCCCCCCCC(=O)NC(C)C(O)CC(O)CCCCC(O)CC(C)CC(OC(=O)CC(CC(=O)O)C(=O)O)C(OC(=O)CC(CC(=O)O)C(=O)O)C(C)CCCC (stereo not drawn)
measurement: 0,0
//
molecule: CCCCCCCCCCCCCCCC(=O)N[C@@H](C)[C@@H](O)C[C@H](O)CCCC[C@@H](O)C[C@H](C)C[C@H](O)[C@H](O)[C@H](C)CCCC
measurement: 0,3
//
molecule: CCCCCCCC/C=C\CCCCCCCCCCCCCC(=O)N[C@@H](C)[C@@H](O)C[C@H](O)CCCC[C@@H](O)C[C@H](C)C[C@H](O)[C@H](O)[C@H](C)CCCC
measurement: 0,0
//
molecule: CCCCCCCCCCCCCCCCCCCC(=O)N[C@@H](C)[C@@H](O)C[C@H](O)CCCC[C@@H](O)C[C@H](C)C[C@H](O)[C@H](O)[C@H](C)CCCC
measurement: 0,0

====

method: In vivo formation of NAFB1 and NAHFB1 in rat kidney and liver (HPLC-ESI-MS/MS)
Parameters: unit not given here
test.settings: Kidney; treatment FB1 1 mg/kg BW ip, 5 days
The following molecules are listed with their measured N-acyl-derivative in tissue sample, analysis a values.
readout: N-acyl-derivative in tissue sample, analysis a

molecule: CCCCCCCCCCCCCCCCCCCC(=O)N[C@@H](C)[C@@H](O)C[C@H](O)CCCC[C@@H](O)C[C@H](C)C[C@H](O)[C@H](O)[C@H](C)CCCC
measurement: 0,0
//
molecule: CCCCCCCCCCCCCCCCCC(=O)NC(C)C(O)CC(O)CCCCC(O)CC(C)CC(OC(=O)CC(CC(=O)O)C(=O)O)C(OC(=O)CC(CC(=O)O)C(=O)O)C(C)CCCC (stereo not shown)
measurement: 3,8
//
molecule: CCCCCCCCCCCCCCCC(=O)N[C@@H](C)[C@@H](O)C[C@H](O)CCCC[C@@H](O)C[C@H](C)C[C@H](O)[C@H](O)[C@H](C)CCCC
measurement: 0,2
//
molecule: CCCCCCCCCCCCCCCCCCCCCCCC(=O)N[C@@H](C)[C@@H](O)C[C@H](O)CCCC[C@@H](O)C[C@H](C)C[C@H](O)[C@H](O)[C@H](C)CCCC
measurement: 0,0

====

method: In vivo formation of NAFB1 and NAHFB1 in rat kidney and liver (HPLC-ESI-MS/MS)
Set-up: unit not given here
test.settings: Liver; treatment FB1 0,5 mg/kg BW ip, 5 days
The following compounds are listed with their measured N-acyl-derivative in tissue sample, analysis a values.
readout: N-acyl-derivative in tissue sample, analysis a

compound: CCCCCCCCCCCCCCCCCC(=O)N[C@@H](C)[C@@H](O)C[C@H](O)CCCC[C@@H](O)C[C@H](C)C[C@H](O)[C@H](O)[C@H](C)CCCC [HFB1C18:0]
measurement: 0,3

compound: CCCCCCCCCCCCCCCCCC(=O)NC(C)C(O)CC(O)CCCCC(O)CC(C)CC(OC(=O)CC(CC(=O)O)C(=O)O)C(OC(=O)CC(CC(=O)O)C(=O)O)C(C)CCCC (stereo not drawn) [FB1C18:0]
measurement: 3,1

compound: CCCCCCCCCCCCCCCCCCCCCC(=O)N[C@@H](C)[C@@H](O)C[C@H](O)CCCC[C@@H](O)C[C@H](C)C[C@H](O)[C@H](O)[C@H](C)CCCC [HFB1C22:0]
measurement: 0,0

====

method: In vivo formation of NAFB1 and NAHFB1 in rat kidney and liver (HPLC-ESI-MS/MS)
Design: unit not given here
test.settings: Liver; treatment FB1 1 mg/kg BW ip, 5 days
readout: N-acyl-derivative in tissue sample, analysis a

compound: CCCCCCCCCCCCCCCCCC(=O)NC(C)C(O)CC(O)CCCCC(O)CC(C)CC(OC(=O)CC(CC(=O)O)C(=O)O)C(OC(=O)CC(CC(=O)O)C(=O)O)C(C)CCCC (centres unmarked)
measurement: 2,0
--
compound: CCCCCCCCCCCCCCCCCCCCCCCC(=O)NC(C)C(O)CC(O)CCCCC(O)CC(C)CC(OC(=O)CC(CC(=O)O)C(=O)O)C(OC(=O)CC(CC(=O)O)C(=O)O)C(C)CCCC (centres unmarked)
measurement: 2,1
--
compound: CCCCCCCCCCCCCCCC(=O)NC(C)C(O)CC(O)CCCCC(O)CC(C)CC(OC(=O)CC(CC(=O)O)C(=O)O)C(OC(=O)CC(CC(=O)O)C(=O)O)C(C)CCCC (centres unmarked)
measurement: 3,9
--
compound: CCCCCCCCCCCCCCCCCCCCCC(=O)NC(C)C(O)CC(O)CCCCC(O)CC(C)CC(OC(=O)CC(CC(=O)O)C(=O)O)C(OC(=O)CC(CC(=O)O)C(=O)O)C(C)CCCC (centres unmarked)
measurement: 1,2
--
compound: CCCCCCCCCCCCCCCCCCCCCCCC(=O)N[C@@H](C)[C@@H](O)C[C@H](O)CCCC[C@@H](O)C[C@H](C)C[C@H](O)[C@H](O)[C@H](C)CCCC
measurement: 0,0

====

method: In vivo formation of NAFB1 and NAHFB1 in rat kidney and liver (HPLC-ESI-MS/MS)
Set-up: unit not given here
test.settings: Liver; treatment FB1 1 mg/kg BW ip, 5 days
readout: N-acyl-derivative in tissue sample, analysis b

compound: CCCCCCCCCCCCCCCCCCCCCCCC(=O)NC(C)C(O)CC(O)CCCCC(O)CC(C)CC(OC(=O)CC(CC(=O)O)C(=O)O)C(OC(=O)CC(CC(=O)O)C(=O)O)C(C)CCCC (stereo not drawn) [FB1C24:0]
measurement: 7,3
//
compound: CCCCCCCCCCCCCCCCCCCCCCCC(=O)N[C@@H](C)[C@@H](O)C[C@H](O)CCCC[C@@H](O)C[C@H](C)C[C@H](O)[C@H](O)[C@H](C)CCCC [HFB1C24:0]
measurement: 0,0
//
compound: CCCCCCCCC=CCCCCCCCCCCCCCC(=O)NC(C)C(O)CC(O)CCCCC(O)CC(C)CC(OC(=O)CC(CC(=O)O)C(=O)O)C(OC(=O)CC(CC(=O)O)C(=O)O)C(C)CCCC (stereo not drawn) [FB1C24:1]
measurement: 6,3
//
compound: CCCCCCCCCCCCCCCC(=O)N[C@@H](C)[C@@H](O)C[C@H](O)CCCC[C@@H](O)C[C@H](C)C[C@H](O)[C@H](O)[C@H](C)CCCC [HFB1C16:0]
measurement: 0,4
//
compound: CCCCCCCCCCCCCCCC(=O)NC(C)C(O)CC(O)CCCCC(O)CC(C)CC(OC(=O)CC(CC(=O)O)C(=O)O)C(OC(=O)CC(CC(=O)O)C(=O)O)C(C)CCCC (stereo not drawn) [FB1C16:0]
measurement: 6,4
//
compound: CCCCCCCCCCCCCCCCCCCCCC(=O)N[C@@H](C)[C@@H](O)C[C@H](O)CCCC[C@@H](O)C[C@H](C)C[C@H](O)[C@H](O)[C@H](C)CCCC [HFB1C22:0]
measurement: 0,0
//
compound: CCCCCCCCCCCCCCCCCC(=O)N[C@@H](C)[C@@H](O)C[C@H](O)CCCC[C@@H](O)C[C@H](C)C[C@H](O)[C@H](O)[C@H](C)CCCC [HFB1C18:0]
measurement: 0,0
//
compound: CCCCCCCCCCCCCCCCCC(=O)NC(C)C(O)CC(O)CCCCC(O)CC(C)CC(OC(=O)CC(CC(=O)O)C(=O)O)C(OC(=O)CC(CC(=O)O)C(=O)O)C(C)CCCC (stereo not drawn) [FB1C18:0]
measurement: 3,0
//
compound: CCCCCCCCCCCCCCCCCCCC(=O)N[C@@H](C)[C@@H](O)C[C@H](O)CCCC[C@@H](O)C[C@H](C)C[C@H](O)[C@H](O)[C@H](C)CCCC [HFB1C20:0]
measurement: 0,1
//
compound: CCCCCCCCCCCCCCCCCCCCCC(=O)NC(C)C(O)CC(O)CCCCC(O)CC(C)CC(OC(=O)CC(CC(=O)O)C(=O)O)C(OC(=O)CC(CC(=O)O)C(=O)O)C(C)CCCC (stereo not drawn) [FB1C22:0]
measurement: 4,0
//
compound: CCCCCCCCCCCCCCCCCCCC(=O)NC(C)C(O)CC(O)CCCCC(O)CC(C)CC(OC(=O)CC(CC(=O)O)C(=O)O)C(OC(=O)CC(CC(=O)O)C(=O)O)C(C)CCCC (stereo not drawn) [FB1C20:0]
measurement: 0,0
//
compound: CCCCCCCC/C=C\CCCCCCCCCCCCCC(=O)N[C@@H](C)[C@@H](O)C[C@H](O)CCCC[C@@H](O)C[C@H](C)C[C@H](O)[C@H](O)[C@H](C)CCCC [HFB1C24:1]
measurement: 0,1
